# study.target: Farnesyltransferase (Saccharomyces cerevisiae S288c, UniProt P22007+P29703)
# method.description: Inhibitory activity against yeast farnesyltransferase
Entries and their measured pIC50 follow.
Friendly reminder that pIC50 comes from taking -log10 of the concentration in mol/L.

INSERT INTO assay_data (mol, measured_quantity, readout_number) VALUES
  ('Cc1ccc(CC(=O)Nc2ccc(NC(=O)/C=C/c3csc(-c4ccc([N+](=O)[O-])cc4)n3)cc2C(=O)c2ccccc2)cc1', 'pIC50', 6.34),
  ('Cc1ccc(CC(=O)Nc2ccc(NC(=O)CCc3ccccc3)cc2C(=O)c2ccccc2)cc1', 'pIC50', 5.70),
  ('Cc1ccc(CC(=O)Nc2ccc(NC(=O)CCCc3ccccc3)cc2C(=O)c2ccccc2)cc1', 'pIC50', 6.28);

Moving on to another compound below.
Data request: Query: pIC50; subject: `Cc1ccc(CC(=O)Nc2ccc(NC(=O)/C=C/c3ccc(-c4ccc(Cl)cc4)o3)cc2C(=O)c2ccccc2)cc1`
Data returned: 5.20

---

# study.target: Farnesyltransferase (Saccharomyces cerevisiae S288c, UniProt P22007+P29703)
# method.description: Inhibitory activity against yeast farnesyltransferase
We label by threshold. Values of IC50 strictly beneath 0.01 µM are T. Values of 0.01 µM and up are F.

INSERT INTO results (molecule, study_target, class_label) VALUES
  ('CCC(C)[C@@H](CN(CC(=O)N[C@@H](CCSC)C(=O)O)Cc1cccc2ccccc12)NC(=O)CC1CN(Cc2ccc(C#N)cc2)C=N1 (stereo not given in full)', 'Farnesyltransferase (Saccharomyces cerevisiae S288c, UniProt P22007+P29703)', 'F'),
  ('Cc1ccc(CC(=O)Nc2ccc(NC(=O)Cc3ccccc3)cc2C(=O)c2ccccc2)cc1', 'Farnesyltransferase (Saccharomyces cerevisiae S288c, UniProt P22007+P29703)', 'F'),
  ('Cc1ccc(CC(=O)Nc2ccc(NC(=O)c3ccccc3)cc2C(=O)c2ccccc2)cc1', 'Farnesyltransferase (Saccharomyces cerevisiae S288c, UniProt P22007+P29703)', 'F'),
  ('CSCC[C@H](NC(=O)c1ccc(COc2cccnc2)cc1-c1ccccc1C)C(=O)O', 'Farnesyltransferase (Saccharomyces cerevisiae S288c, UniProt P22007+P29703)', 'T');

Data request: Does this molecule meet the criterion IC50 < 0.01 µM? `CSCC[C@H](NC(=O)c1ccc(CN(Cc2ccccc2)c2cccnc2)cc1-c1ccccc1C)C(=O)O`
Data returned: T

Data request: And `CSCC[C@H](NC(=O)c1ccc(COCc2ccc(-c3ccccc3)o2)cc1-c1ccccc1)C(=O)O` ?
Data returned: T

Data request: And `Cc1ccc(CC(=O)Nc2ccc(NC(=O)CCCCCc3ccccc3)cc2C(=O)c2ccccc2)cc1` ?
Data returned: F

---

# study.target: Farnesyltransferase (Saccharomyces cerevisiae S288c, UniProt P22007+P29703)
# Sequence (P29703 whole entry): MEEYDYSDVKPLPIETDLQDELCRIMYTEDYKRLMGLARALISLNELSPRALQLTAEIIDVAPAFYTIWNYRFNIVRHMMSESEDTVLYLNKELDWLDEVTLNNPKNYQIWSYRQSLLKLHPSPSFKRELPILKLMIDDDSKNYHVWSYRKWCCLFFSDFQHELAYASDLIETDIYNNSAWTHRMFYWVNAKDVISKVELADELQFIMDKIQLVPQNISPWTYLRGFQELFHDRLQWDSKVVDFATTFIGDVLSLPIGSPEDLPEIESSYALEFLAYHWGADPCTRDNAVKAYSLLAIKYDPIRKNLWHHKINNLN
# Sequence (P22007 whole entry): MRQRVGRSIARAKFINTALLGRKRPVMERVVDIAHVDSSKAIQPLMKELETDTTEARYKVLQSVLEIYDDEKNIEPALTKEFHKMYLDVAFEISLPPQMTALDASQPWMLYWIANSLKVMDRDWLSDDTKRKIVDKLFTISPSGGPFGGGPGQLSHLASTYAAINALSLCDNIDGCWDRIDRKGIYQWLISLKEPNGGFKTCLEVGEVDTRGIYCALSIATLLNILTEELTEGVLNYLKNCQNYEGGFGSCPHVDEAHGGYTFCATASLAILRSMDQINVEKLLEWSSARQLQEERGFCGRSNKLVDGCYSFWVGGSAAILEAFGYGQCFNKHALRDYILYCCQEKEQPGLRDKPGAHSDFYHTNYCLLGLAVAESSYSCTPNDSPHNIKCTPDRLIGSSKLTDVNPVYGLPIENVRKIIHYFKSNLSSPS
# method.description: Inhibitory activity against yeast farnesyltransferase
measured.quantity: pIC50
Friendly reminder that pIC50 comes from taking -log10 of the concentration in mol/L.

INSERT INTO measurements (molecule, study_target, measured_quantity, readout_number) VALUES
  ('CCC(C)[C@@H](CN(CC(=O)N[C@@H](CCSC)C(=O)O)Cc1cccc2ccccc12)NC(=O)CSCc1ccc(C#N)cc1 (stereo partly drawn)', 'Farnesyltransferase (Saccharomyces cerevisiae S288c, UniProt P22007+P29703)', 'pIC50', 8.27),
  ('Cc1ccc(CC(=O)Nc2ccc(NC(=O)/C=C/c3ccc(-c4ccc(Br)cc4)o3)cc2C(=O)c2ccccc2)cc1', 'Farnesyltransferase (Saccharomyces cerevisiae S288c, UniProt P22007+P29703)', 'pIC50', 6.03);

Moving on to another molecule below.
Data request: Query: pIC50; subject: `Cc1ccc(CC(=O)Nc2ccc(NC(=O)CCCCc3ccccc3)cc2C(=O)c2ccccc2)cc1`
Data returned: 6.41
